- Test system: MS2 coat protein
- ASSAY_INFO: apparent KD of MS2 coat protein; designed switch direction (-1 OFF switch, 1 ON switch): -1; higher = weaker reporter binding
- MEASUREMENT_CONDITIONS: input ligand: none
READOUT_LABEL: apparent KD of MS2 coat protein (nM)

construct_sequence="CCGGAAAUACAGGAUAUAGGAGUCAAUAGACUCCUAGAAGGGUAUACAUGAGGAUCACCCAUGUGUCCUACCGG [Fiskers Ex 6 - 66] (Eterna round: R96, puzzle: Exclusion 6)" readout_label="apparent KD of MS2 coat protein" recorded_result=27.7
construct_sequence="UGCAUGUGAGGAUAUGUACCUGAGUGCUUUGCGCUCAGGAAACAGAAGGCACAUGAGGAUCACCCAUGUGAAAA [jl-ex4-4.46 ViennaUCT mod] (Eterna round: R97, puzzle: Exclusion 4)" readout_label="apparent KD of MS2 coat protein" recorded_result=208
construct_sequence="CCGAAAAGGAAGGAUAUGCUAGACGAAAGUCUAGCAGAAGGUCCUACAUGAGGAUCACCCAUGUGUCCUAUCGG [Mat - Exclusion 6 - Eli Mod - D39] (Eterna round: R97, puzzle: Exclusion 6)" readout_label="apparent KD of MS2 coat protein" recorded_result=43.4
construct_sequence="AACAGUCUGGAGGAUAUGCUGGAUUAAUAUCUGGCAGAAGGCUUGACAUGAGGAUCACCCAUGUAAAUACUACC [Omei Ex6 A3] (Eterna round: R97, puzzle: Exclusion 6)" readout_label="apparent KD of MS2 coat protein" recorded_result=20.8
construct_sequence="ACAUGAGGAUCACCCAUGUAAUCAUGAUGGCUGAUGUAGACUCAGGAUAUGUGUGGCUUUCUAUCACAGAAGGGAGAAGACUGG [Deportation 37 - Jieux - Exclusion NG 3] (Eterna round: R96, puzzle: Exclusion NG 3)" readout_label="apparent KD of MS2 coat protein" recorded_result=129
